Molecular target: T1, mouse IL-2Rγ endogenously expressed on MC/9 cells (mouse, UniProt P34902 23-369)
T1 construct: whole, on cells
T1 sequence (looked up): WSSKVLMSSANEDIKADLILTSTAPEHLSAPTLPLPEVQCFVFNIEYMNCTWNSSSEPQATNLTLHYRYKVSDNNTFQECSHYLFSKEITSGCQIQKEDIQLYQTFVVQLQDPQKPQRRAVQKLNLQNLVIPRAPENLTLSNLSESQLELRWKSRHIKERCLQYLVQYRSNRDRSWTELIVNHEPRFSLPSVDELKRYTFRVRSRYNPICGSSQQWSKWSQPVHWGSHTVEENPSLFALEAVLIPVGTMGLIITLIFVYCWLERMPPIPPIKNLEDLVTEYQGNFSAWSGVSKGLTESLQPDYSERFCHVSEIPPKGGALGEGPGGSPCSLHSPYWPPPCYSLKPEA
Assay: flow cytometry, 10 ug/ml antibody, MC/9 cells (endogenous mouse IL-2Rg)
MEASURED_PARAMETER: Binding Ratio (Sample over unstained MFIs)
A bare number is all that is needed in reply.

Ask: For H4H12874P (antibody, human IgG4 S228P, kappa, V domains shown, fully human anti-IL2Rg antibody, human IgG4) VH: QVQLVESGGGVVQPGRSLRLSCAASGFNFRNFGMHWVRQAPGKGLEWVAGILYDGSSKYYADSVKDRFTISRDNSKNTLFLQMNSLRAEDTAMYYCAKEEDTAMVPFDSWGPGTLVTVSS VL: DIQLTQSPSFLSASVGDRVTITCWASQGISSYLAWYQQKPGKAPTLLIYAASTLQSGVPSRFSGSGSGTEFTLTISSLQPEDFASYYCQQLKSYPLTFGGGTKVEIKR , write its Binding Ratio (Sample over unstained MFIs).
Result: 1

Lab note: next binder to report on.
Ask: For H4H12889P (antibody, human IgG4 S228P, kappa, V domains shown, fully human anti-IL2Rg antibody, human IgG4; also called REGN7257) VH: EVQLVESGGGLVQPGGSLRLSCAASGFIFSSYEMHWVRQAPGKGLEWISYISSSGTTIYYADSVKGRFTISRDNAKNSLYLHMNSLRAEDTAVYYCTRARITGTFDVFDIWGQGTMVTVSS VL: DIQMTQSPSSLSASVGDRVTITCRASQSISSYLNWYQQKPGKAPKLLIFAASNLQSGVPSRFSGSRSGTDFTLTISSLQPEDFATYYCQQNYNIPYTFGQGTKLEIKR , write its Binding Ratio (Sample over unstained MFIs).
Result: 1
